Test system: DAPK1;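 also: KINOMEscan scanMAX binding as percent activity remaining versus control; lower means stronger binding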
condition.parameters: Compound Concentration (nM):1000
Assign Percent Control to each entry below.
Report only the number, with the unit % understood.

Briefly, Percent Control measured for O=C1Nc2ccc(C(=O)c3ccco3)cc2C1=Cc1cc(Cl)c(O)c(Cl)c1 [GW406108X] : 22

Briefly, Percent Control measured for NS(=O)(=O)c1ccc(N/N=C2\C(=O)Nc3ccc(C(=O)NCc4ccncc4)cc32)cc1 [GW300657X] : 63

Briefly, Percent Control measured for NS(=O)(=O)c1ccc(Nc2ncc(-c3ccccc3)o2)cc1 [GW572399X] : 100

Briefly, Percent Control measured for NS(=O)(=O)c1ccc(N/N=C2\C(=O)Nc3ccc(-c4cnco4)cc32)cc1 : 60

Briefly, Percent Control measured for CN(C)CCNC(=O)Nc1ccc(N(C)c2ccnc(Nc3ccc(CS(C)(=O)=O)cc3)n2)cc1.Cl [GW830900A] : 94

Briefly, Percent Control measured for COc1cc(C=NNc2ncnc3c2cnn3-c2ccccc2)ccc1O [GW513184X] : 100

Briefly, Percent Control measured for COc1cc2ncn(-c3cc(O[C@H](C)c4ccccc4Cl)c(C(N)=O)s3)c2cc1OC [GSK237701A] : 55

Briefly, Percent Control measured for COc1ccc2cc(-c3c(-c4ccncc4)nc(-c4ccc(S(C)(=O)=O)cc4C)n3C)ccc2c1 : 96
